Data origin: PubChem BioAssay (NCI)

test system: SN12C renal; assay: NCI-60 one-dose screen, 48 h (100 = growth as untreated, 0 = no growth, -100 = all killed); conditions: 10 µM
Compounds without any hit were thinned out: in the full panel of roughly 83,000, 20% have a hit.
The entries below are paired with their reported growth.
Kindly provide the numeric value in % only, without the unit symbol.

Some compounds with recorded growth:
| substance-smiles | growth (%) |
| --- | --- |
| COc1ccc(C(=O)/C=C/c2ccc(Cl)c(C(F)(F)F)c2)cc1S(N)(=O)=O | -100 |
| O=c1[nH]c2ccc(Cl)cc2cc1CSc1ccc(Nc2nccc(-c3ccc(Cl)cc3)n2)cc1 | 72.9 |

# context switch: different compound, same growth
Reported growth, compound O=C1NC(=NC23CC4CC(CC(C4)C2)C3)N/C1=C\c1ccc2ncoc2c1 : ____
2.78
